These measurements were taken from paper PMC8291071.

Field: pIC50. Provide a value for each of the compounds that follow.
biological target: LSD1 (Homo sapiens); assay: LSD1 enzymatic assay
pIC50: −log10 of the molar value.

// solved cases for pIC50 follow
CCN1CCN(C(=S)SCCN(c2cc(OC)c(OC)c(OC)c2)S(=O)(=O)c2ccc(OC)cc2)CC1 [Compound 17b] ... 6.90
COc1ccc(S(=O)(=O)N(CCSC(=S)N2CCN(C(C)=O)CC2)c2cc(OC)c(OC)c(OC)c2)cc1 [Compound 17d] ... < 6.70

Now for a further compound.
// lookup pIC50 for COc1ccc(S(=O)(=O)N(CCSC(=S)N2CCN(C(=O)OC(C)(C)C)CC2)c2cc(OC)c(OC)c(OC)c2)cc1 [Compound 17f] < 6.70

###

Give measured melting point for each item. Keep answers brief.

COc1ccc(S(=O)(=O)N(CCSC(=S)N2CCN(C(C)=O)CC2)c2cc(OC)c(OC)c(OC)c2)cc1 [Compound 17d] ... 152 to 154 °C

For each entry beneath this line, provide reported melting point.
1. CCN1CCN(C(=S)SCCN(c2cc(OC)c(OC)c(OC)c2)S(=O)(=O)c2ccc(OC)cc2)CC1 [Compound 17b]
2. COc1ccc(S(=O)(=O)N(CCBr)c2cc(OC)c(OC)c(OC)c2)cc1 [Compound 16]
3. COc1ccc(S(=O)(=O)N(CCSC(=S)N2CCN(c3ccc(F)cc3)CC2)c2cc(OC)c(OC)c(OC)c2)cc1 [Compound 17e]
4. COc1ccc(S(=O)(=O)N(CCSC(=S)N2CCN(CCO)CC2)c2cc(OC)c(OC)c(OC)c2)cc1 [Compound 17c]
5. COc1ccc(S(=O)(=O)N(CCSC(=S)N2CCN(C(=O)OC(C)(C)C)CC2)c2cc(OC)c(OC)c(OC)c2)cc1 [Compound 17f]

1: 150 to 152 °C; 2: 116 to 118 °C; 3: 166 to 168 °C; 4: 146 to 148 °C; 5: 162 to 164 °C

###

tested on: tubulin; experiment: Inhibitory activity of tubulin polymerisation in vitro; type: biochemical; details: fluorescence intensity
Kindly supply the reported IC50 values for the records listed here.
One number for each entry, in µM.

Please review the entries below; each comes with its answer.
COc1ccc(S(=O)(=O)N(CCSC(=S)N2CCN(C(C)=O)CC2)c2cc(OC)c(OC)c(OC)c2)cc1 [Compound 17d] ... 1.78
COc1ccc(S(=O)(=O)N(CCSC(=S)N2CCN(C(=O)OC(C)(C)C)CC2)c2cc(OC)c(OC)c(OC)c2)cc1 [Compound 17f] ... 3.07

Next up:
Any idea what IC50 was measured for CCN1CCN(C(=S)SCCN(c2cc(OC)c(OC)c(OC)c2)S(=O)(=O)c2ccc(OC)cc2)CC1 [Compound 17b] ? 2.13
